Biological target: Tyrosine-protein kinase Tec (Homo sapiens) (UniProt P42680);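 further: each value is the mean of the inhibition measurements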
Sequence (whole entry): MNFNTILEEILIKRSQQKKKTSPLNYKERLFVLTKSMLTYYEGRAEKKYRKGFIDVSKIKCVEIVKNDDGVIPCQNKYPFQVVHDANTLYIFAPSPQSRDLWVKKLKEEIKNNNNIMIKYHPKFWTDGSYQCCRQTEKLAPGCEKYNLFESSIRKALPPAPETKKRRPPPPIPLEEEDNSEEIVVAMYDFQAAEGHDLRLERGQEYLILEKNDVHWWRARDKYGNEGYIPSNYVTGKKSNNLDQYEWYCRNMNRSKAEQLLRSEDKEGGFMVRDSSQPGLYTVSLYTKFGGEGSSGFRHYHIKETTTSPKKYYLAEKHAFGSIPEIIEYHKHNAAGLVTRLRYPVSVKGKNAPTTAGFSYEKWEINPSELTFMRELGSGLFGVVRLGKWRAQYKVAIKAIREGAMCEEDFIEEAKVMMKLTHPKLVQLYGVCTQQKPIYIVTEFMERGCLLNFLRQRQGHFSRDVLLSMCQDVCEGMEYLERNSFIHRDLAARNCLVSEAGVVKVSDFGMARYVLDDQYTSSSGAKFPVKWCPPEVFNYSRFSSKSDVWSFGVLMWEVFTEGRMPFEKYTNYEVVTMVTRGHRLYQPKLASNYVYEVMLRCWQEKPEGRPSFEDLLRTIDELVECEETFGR
Details: at 1 µM
quantity.kind: inhibition (%)
Hi! Could you send only the number? It should be in %, unit omitted.

- smiles.representation: "NC(=O)c1ccc(Oc2nccc(-c3c(-c4ccc(F)cc4)ncn3C3CCNCC3)n2)cc1"
  inhibition [%]: 6.14
- smiles.representation: "CS(=O)(=O)CCNCc1cc(-c2cc3c(Nc4ccc(OCc5cccc(F)c5)c(Cl)c4)ncnc3s2)cs1"
  inhibition [%]: 7
- smiles.representation: "COc1cc(C)c(N(C)C(=O)CN(C)C)cc1Nc1nc(Nc2cccc(F)c2C(N)=O)c2cc[nH]c2n1"
  inhibition [%]: 1.07
- smiles.representation: "NC(=O)c1cc(-c2ccc(F)cc2)cc(-c2ccncc2)c1N"
  inhibition [%]: 5.71

Which inhibition is reported for this compound? N#Cc1ccc(Oc2nccc(-c3c(-c4ccc(F)cc4)ncn3C3CCNCC3)n2)cc1
5.61

Which inhibition is reported for this compound? O=C(Nc1n[nH]c2cc(-c3ccccc3)ccc12)C1CC1
16.4

Which inhibition is reported for this compound? CN(C)CCOc1ccc(-c2cc(-c3ccc4c(c3)CCC4=NO)c(-c3ccncc3)o2)cc1
1.01

Which inhibition is reported for this compound? COc1ccc2ncn(-c3cc(O[C@H](C)c4ccccc4Cl)c(C(N)=O)s3)c2c1
0.84

Which inhibition is reported for this compound? CN1CCN(CCCNc2nc3ccc(Oc4ccc(NC(=O)Nc5cc(C(F)(F)F)ccc5F)cc4)cc3[nH]2)CC1
5.07

* * *

The entries below come with measured inhibition values attached.
Target: Aurora kinase B (Homo sapiens);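 further: reported percent inhibition is a mean value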
Settings: at 1 µM
Hi! Could you send only the number? It should be in %, unit omitted.

Recorded results for 2 compounds are shown here.
- smiles.representation: "COc1cc(N2CCN(C(C)C)CC2)ccc1Nc1nc(Nc2ccc(F)cc2C(=O)NC[C@@H](O)CO)c2cc[nH]c2n1"
  value.observed: 3.15
- smiles.representation: "C/C(Nc1ccc(S(N)(=O)=O)cc1)=C1/C(=O)Nc2ccccc21"
  value.observed: 48

Which inhibition is reported for this compound? Cc1ccc(C(=O)NC(C)C)cc1-c1ccc(C(=O)NCC2CC2)cc1
2.24

Which inhibition is reported for this compound? COc1cc2ncn(-c3cc(OCc4ccccc4C(F)(F)F)c(C(C)=O)s3)c2cc1OC
9.68

Which inhibition is reported for this compound? NC(=O)Cc1ccccc1Oc1nccc(-c2c(-c3ccc(F)cc3)ncn2C2CCNCC2)n1
1.02

Which inhibition is reported for this compound? CCc1cccc(CC)c1/C=C/c1cncc(C(=O)NC)c1
6.73

Which inhibition is reported for this compound? O=C(Nc1n[nH]c2cc(-c3cc(F)ccc3F)ccc12)C1CC1
6.93

Which inhibition is reported for this compound? CNC(=O)c1cncc(/C=C/c2c(C)cccc2C)c1
-3.06

Which inhibition is reported for this compound? CS(=O)(=O)CCNCc1ccc(-c2ccc3ncnc(Nc4ccc(OCc5ccccc5)c(Br)c4)c3c2)o1
3.89

Which inhibition is reported for this compound? NS(=O)(=O)c1ccc(Nc2cc(-c3ccc(O)c(F)c3)n[nH]2)cc1
19.4

Which inhibition is reported for this compound? CCN(CC)Cc1ccc(Nc2nccc(-c3cnn4ncccc34)n2)cc1
63.7

Which inhibition is reported for this compound? COc1cc(Nc2ncc(-c3ccccc3)o2)cc(OC)c1OC
50

Which inhibition is reported for this compound? NS(=O)(=O)c1ccc(N/N=C2\C(=O)Nc3ccc(C(=O)NCCCn4ccnc4)cc32)cc1
17.8

Which inhibition is reported for this compound? Cc1nnc(-c2ccc(C)c(-c3ccc(C(=O)NCc4ccc(Cl)cc4)cc3)c2)o1
-2.09

Which inhibition is reported for this compound? O=C(NCC1CC1)c1ccc(-c2cccc(C(=O)NC3CC3)c2)cc1
5.76

Which inhibition is reported for this compound? O=C1Nc2ccccc2/C1=C/Nc1ccc(-n2cncn2)cc1
27.7

Which inhibition is reported for this compound? Fc1ccc(-c2c(-c3ccncc3)nc3n2CCS3)cc1
1.83

Which inhibition is reported for this compound? COc1cc(Nc2ncc3c(C)nc(-c4cccc(Oc5ccccc5)c4)n3n2)cc(OC)c1OC
15.8

Which inhibition is reported for this compound? COC(=O)Nc1nc2ccc(Sc3ccc(NC(=O)Nc4cc(C(F)(F)F)ccc4F)cc3)cc2[nH]1
8.08

* * *

Target: cGMP-dependent protein kinase 1 (Homo sapiens) (UniProt Q13976)
Sequence (whole entry): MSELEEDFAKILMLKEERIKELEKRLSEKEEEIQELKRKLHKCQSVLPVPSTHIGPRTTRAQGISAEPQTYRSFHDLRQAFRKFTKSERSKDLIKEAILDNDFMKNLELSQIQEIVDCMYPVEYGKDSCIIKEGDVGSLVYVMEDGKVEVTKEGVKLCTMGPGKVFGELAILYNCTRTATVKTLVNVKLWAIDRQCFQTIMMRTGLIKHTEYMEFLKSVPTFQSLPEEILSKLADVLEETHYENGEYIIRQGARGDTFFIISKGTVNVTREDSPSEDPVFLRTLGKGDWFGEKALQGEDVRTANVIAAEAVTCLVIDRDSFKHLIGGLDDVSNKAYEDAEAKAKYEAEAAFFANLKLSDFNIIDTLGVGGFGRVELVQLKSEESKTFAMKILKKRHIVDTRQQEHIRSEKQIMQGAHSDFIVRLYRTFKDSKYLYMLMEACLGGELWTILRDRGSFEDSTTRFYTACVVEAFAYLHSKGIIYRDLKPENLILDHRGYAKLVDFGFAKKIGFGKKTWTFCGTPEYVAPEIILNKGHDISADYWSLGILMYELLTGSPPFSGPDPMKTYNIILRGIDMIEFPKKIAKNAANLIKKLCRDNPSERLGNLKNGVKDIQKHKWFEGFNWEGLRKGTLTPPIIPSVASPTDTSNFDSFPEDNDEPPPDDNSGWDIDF
Details: at 0.1 µM
Description: GSK_PKIS: PRKG1 mean inhibition at 0.1 uM [Nanosyn]
quantity.kind: inhibition (%)
Hi! Could you send only the number? It should be in %, unit omitted.

- smiles.representation: "Fc1ccc(-c2nc3n(c2-c2ccncc2)CCS3)cc1"
  inhibition, %: 3.66

Which inhibition is reported for this compound? CCS(=O)(=O)c1ccc(OC)c(Nc2ncc(-c3ccccc3Cl)o2)c1
1.27

Which inhibition is reported for this compound? O=C(Nc1n[nH]c2nc(-c3ccco3)ccc12)C1CC1
2.2

* * *

Biological target: Macrophage colony-stimulating factor 1 receptor (Homo sapiens)
Settings: at 1 µM
quantity.kind: inhibition (%)
Hi! Could you send only the number? It should be in %, unit omitted.

Recorded results for 3 compounds are shown here.
- smiles.representation: "CN(C)CCCNc1nccc(-c2c(-c3ccc(F)cc3)nn3cc(C(F)(F)F)ccc23)n1"
  inhibition [%]: 2.47
- smiles.representation: "CN(C)c1ccc2c(c1)/C(=C/Nc1ccc(S(N)(=O)=O)cc1)C(=O)N2"
  inhibition [%]: 18.8
- smiles.representation: "Cc1nnc(-c2ccc(C)c(-c3ccc(C(=O)NCc4ccc(Cl)cc4)cc3)c2)o1"
  inhibition [%]: 0.83

Which inhibition is reported for this compound? O=C1Nc2ccccc2/C1=C/Nc1ccc(-n2cncn2)cc1
34.5

Which inhibition is reported for this compound? COc1ccc(C2=C(N3CCc4ccccc43)C(=O)NC2=O)cc1
4.23

* * *

Target: Tyrosine-protein kinase Fyn (Homo sapiens) (UniProt P06241)
Sequence (P06241 2-537 limits assumed): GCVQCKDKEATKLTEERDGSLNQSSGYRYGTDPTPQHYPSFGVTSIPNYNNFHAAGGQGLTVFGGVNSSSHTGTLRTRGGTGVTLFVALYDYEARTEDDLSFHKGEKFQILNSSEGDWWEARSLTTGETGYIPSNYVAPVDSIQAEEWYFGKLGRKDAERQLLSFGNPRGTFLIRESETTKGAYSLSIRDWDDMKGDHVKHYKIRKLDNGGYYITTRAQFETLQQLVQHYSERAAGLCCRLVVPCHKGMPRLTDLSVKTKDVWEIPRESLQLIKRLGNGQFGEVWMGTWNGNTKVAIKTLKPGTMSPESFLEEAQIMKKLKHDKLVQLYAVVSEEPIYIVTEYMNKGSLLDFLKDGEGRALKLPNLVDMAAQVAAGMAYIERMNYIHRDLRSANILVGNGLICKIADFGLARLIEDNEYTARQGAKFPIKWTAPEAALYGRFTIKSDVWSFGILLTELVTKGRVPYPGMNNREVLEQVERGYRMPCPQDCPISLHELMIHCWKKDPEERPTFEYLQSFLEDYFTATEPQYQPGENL
Settings: at 1 µM
Description: GSK_PKIS: FYN mean inhibition at 1 uM [Nanosyn]
Rule: inhibition of 7% or more gives true (1); anything lower gives false (0).

Decide: inhibition of CN(C)CCCNc1nccc(-c2c(-c3ccc(F)cc3)nn3cc(C(F)(F)F)ccc23)n1 >= 7%?
false (0)

* * *

Molecular target: Macrophage colony-stimulating factor 1 receptor (Homo sapiens);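 further: mean inhibition of FMS, from the GSK PKIS screening set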
Settings: at 1 µM
Rule: inhibition of 10% or more gives rule met; anything lower gives rule not met.

- smiles.representation: "FC(F)(F)c1cccc(Nc2nccc(-c3cnn4nc(-c5ccccc5)ccc34)n2)c1"
  measured.on: "Macrophage colony-stimulating factor 1 receptor (Homo sapiens)"
  assigned.class: "rule met"
- smiles.representation: "N#Cc1ccc(Oc2nccc(-c3c(-c4ccc(F)cc4)ncn3C3CCNCC3)n2)cc1"
  measured.on: "Macrophage colony-stimulating factor 1 receptor (Homo sapiens)"
  assigned.class: "rule not met"
- smiles.representation: "CNC(=O)c1cncc(/C=C/c2c(C)cccc2C)c1"
  measured.on: "Macrophage colony-stimulating factor 1 receptor (Homo sapiens)"
  assigned.class: "rule met"
- smiles.representation: "C#Cc1cccc(Nc2ncnc3ccc(OCCCCNCCS(C)(=O)=O)cc23)c1"
  measured.on: "Macrophage colony-stimulating factor 1 receptor (Homo sapiens)"
  assigned.class: "rule not met"
- smiles.representation: "CCc1ccc(Oc2nccc(-c3c(-c4ccc(F)cc4)ncn3C3CCNCC3)n2)cc1"
  measured.on: "Macrophage colony-stimulating factor 1 receptor (Homo sapiens)"
  assigned.class: "rule not met"

Decide: inhibition of C[C@@H](Oc1cc(-n2cnc3ccc(OCC4CCN(C)CC4)cc32)sc1C(N)=O)c1ccccc1Cl >= 10%?
rule met

Decide: inhibition of Clc1ccc(CNc2nccc(-c3cnn4ncccc34)n2)cc1 >= 10%?
rule met
